- target under test: hEP2/Gqs5 (Homo sapiens)
- Construct: expressed in transfected cells; host or cells: HEK-293(EBNA)
- Sequence (P43116 whole entry): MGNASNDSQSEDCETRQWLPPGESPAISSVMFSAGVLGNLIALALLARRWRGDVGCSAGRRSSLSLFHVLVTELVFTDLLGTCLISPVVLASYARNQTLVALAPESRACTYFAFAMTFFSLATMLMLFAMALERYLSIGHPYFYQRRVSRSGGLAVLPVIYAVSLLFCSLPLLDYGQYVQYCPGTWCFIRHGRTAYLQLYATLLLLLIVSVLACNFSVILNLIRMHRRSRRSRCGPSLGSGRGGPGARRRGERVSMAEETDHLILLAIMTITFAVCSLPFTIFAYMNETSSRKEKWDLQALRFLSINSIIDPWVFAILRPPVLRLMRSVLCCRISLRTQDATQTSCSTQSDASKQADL
- test name: FLIPR calcium signal, hEP2
- Type: cell-based
- assay setup: FLIPR Ca2+ signal, HEK-293(EBNA); read-out: FUNCTIONAL EC50 HEP2
pEC50: −log10 of the molar value.
assay endpoint: pEC50

// worked examples, pEC50 included
compound: COC(=O)CCC/C=C\C[C@@H]1[C@@H](c2ccc(C3(O)CCC3)cc2)[C@H](O)C[C@H]1Cl
pEC50: < 5.00
--
compound: COC(=O)CCCCCC[C@@H]1[C@@H](c2ccc(C(C)(C)CO)cc2)[C@H](O)C[C@H]1Cl [drawing 115]
pEC50: < 5.00
--
compound: COC(=O)CCC/C=C\C[C@@H]1[C@@H](c2ccc(C(C)(C)CO)cc2)[C@H](O)C[C@H]1Cl [drawing 117]
pEC50: < 5.00

Now consider a different compound.
Can you look up the measured pEC50 of COC(=O)CCCCCC[C@@H]1[C@@H](c2ccc(C(C)(C)C)cc2)[C@H](O)C[C@H]1Cl for me? < 5.00
